The measurements presented in this section are drawn from patent US20140243335A1.

The entries below are paired with their reported inhibition at 0.412 µM.
- tgt: purified human HDAC6 (Homo sapiens)
- Construct: purchased BPS Bioscience 5006
- assayInfo: HDAC6 Enzyme Assay
- Format: biochemical
- protocolConditions: HDAC6 inhibition at a compound concentration of 0.412 μM; read-out: Percent Inhibition at 0.412 μM
Report only the number, with the unit % understood.

{"compound": "CCN1CCC(C)(C(=O)Nc2cc(OC3CCc4cc(C(=O)NO)ccc4C3)ccn2)CC1 (centres unmarked)", "scaleUnit": "%", "numericReadout": 91}
{"compound": "O=C(NO)c1ccc2c(c1)CC(NCc1ccncc1)CC2 (centres unmarked)", "scaleUnit": "%", "numericReadout": 75}
{"compound": "O=C(NO)c1ccc2c(c1)CCCC2NC(=O)c1sc2ccccc2c1Cl (centres unmarked)", "scaleUnit": "%", "numericReadout": 69}

// lookup inhibition at 0.412 µM for CC(C)(C)c1ccc(C(=O)NC2CCCc3cc(C(=O)NO)ccc32)cc1 (centres unmarked)
55

Next entry: CN(C)Cc1cccc(C2CCc3cc(C(=O)NO)ccc3C2)c1 (centres unmarked)
69

###

- tgt: purified human HDAC6 (Homo sapiens, UniProt Q9UBN7)
- Construct: purchased BPS Bioscience 5006
- assayInfo: HDAC6 Enzyme Assay
- Assay type: biochemical
- protocolConditions: HDAC6 inhibition at a compound concentration of 0.412 μM; read-out: Percent Inhibition at 0.412 μM
experimentalEndpoint: inhibition at 0.412 µM (%)
Respond numerically; units are % and should not be typed.

// below: answered compounds
{"compound": "Cc1oc(S(=O)(=O)N2CCCC2)cc1C(=O)NC1CCCc2cc(C(=O)NO)ccc21 (stereo not drawn)", "inhibition at 0.412 µM / %": 28}
{"compound": "O=C(NO)c1ccc2c(c1)CCCC2NC(=O)C1CCCCC1 (stereo not drawn)", "inhibition at 0.412 µM / %": 19}
{"compound": "CCC(C)(C)C(=O)NC1CCCc2cc(C(=O)NO)ccc21 (stereo not drawn)", "inhibition at 0.412 µM / %": 11}
{"compound": "CC(C)(C)CC(=O)NC1CCCc2cc(C(=O)NO)ccc21 (stereo not drawn)", "inhibition at 0.412 µM / %": 11}
{"compound": "Cn1cccc1C(=O)NC1CCCc2cc(C(=O)NO)ccc21 (stereo not drawn)", "inhibition at 0.412 µM / %": 34}
{"compound": "O=C(NO)c1ccc2c(c1)CCCC2NC(=O)c1cn2cc(Cl)ccc2n1 (stereo not drawn)", "inhibition at 0.412 µM / %": 70}

Lab note: need inhibition at 0.412 µM with purified human HDAC6 (Homo sapiens, UniProt Q9UBN7) for entry O=C(NO)c1ccc2c(c1)CCC(c1ccc(Cl)cc1)C2 (stereo not drawn) , please look it up.
55

Record: O=C(NO)c1ccc2c(c1)CCCC2NC(=O)c1cc2ccccc2s1 (stereo not drawn)
46

Next compound: `Cn1cccc1C(=O)N[C@@H]1CCCc2cc(C(=O)NO)ccc21`
16

###

- tgt: purified human HDAC6 (Homo sapiens)
- Construct: purchased BPS Bioscience 5006
- assayInfo: HDAC6 Enzyme Assay
- Format: biochemical
- protocolConditions: HDAC6 inhibition at a compound concentration of 0.412 μM; read-out: Percent Inhibition at 0.412 μM
We use 80% as the dividing line for inhibition at 0.412 µM: on or above the line is Criterion met, below is Criterion not met.

{"compound": "Cc1cc(C(=O)NC2CCc3cc(C(=O)NO)ccc3C2)c(C)n1Cc1cccs1 (stereo not drawn)", "classification": "Criterion not met"}

Hello, I need to know if Cc1cc(C(=O)NC2CCCc3cc(C(=O)NO)ccc32)n(C(C)(C)C)n1 (stereo not drawn) has measured inhibition at 0.412 µM not below 80%. Thanks!
Criterion not met

Query Nc1cc(C2CCc3ccc(C(=O)NO)cc3C2)ncn1 (stereo not drawn) next
Criterion met

What about this compound? Cn1cccc1C(=O)NC1CCc2cc(C(=O)NO)ccc2C1 (stereo not drawn)
Criterion not met

Continue with `O=C(NO)c1ccc2c(c1)CCC[C@H]2NC(=O)c1cc2cc(Cl)ccc2o1`
Criterion not met

Now consider O=C(NO)c1ccc2c(c1)C1CCC2N1C(=O)Cc1ccccc1 (stereo not drawn) .
Criterion not met

###

- tgt: purified human HDAC6 (Homo sapiens, UniProt Q9UBN7)
- Construct: purchased BPS Bioscience 5006
- assayInfo: HDAC6 Enzyme Assay
- Format: biochemical
- protocolConditions: HDAC6 inhibition at a compound concentration of 0.412 μM; read-out: Percent Inhibition at 0.412 μM
experimentalEndpoint: inhibition at 0.412 µM

Below: 2 molecules and their reported inhibition at 0.412 µM.
{"molecule": "O=C(NO)c1ccc2c(c1)CCC(CCc1cccc(F)c1)C2 (stereo not drawn)", "result": "63%"}
{"molecule": "CC(=O)Nc1cccc(C2CCc3cc(C(=O)NO)ccc3C2)c1 (stereo not drawn)", "result": "85%"}

Here's the next entry for you.
Lookup: inhibition at 0.412 µM / purified human HDAC6 (Homo sapiens, UniProt Q9UBN7) / `Cn1c(C(=O)N[C@@H]2CCCc3cc(C(=O)NO)ccc32)cc2ccccc21`
18%

###

- tgt: purified human HDAC6 (Homo sapiens, UniProt Q9UBN7)
- Construct: purchased BPS Bioscience 5006
- assayInfo: HDAC6 Enzyme Assay
- Assay type: biochemical
- protocolConditions: HDAC6 inhibition at a compound concentration of 0.412 μM; read-out: Percent Inhibition at 0.412 μM
Categories are assigned from the measured inhibition at 0.412 µM using these intervals: low: < 40%; mid: ≥ 40% and < 80%; high: ≥ 80%

{"molecule": "CC(C)(C)C(=O)NC1CCCc2cc(C(=O)NO)ccc21 (stereo not drawn)", "tgt": "purified human HDAC6 (Homo sapiens, UniProt Q9UBN7)", "classification": "low"}

Category lookup for the molecule COc1cccc(C(=O)NC2CCc3cc(C(=O)NO)ccc3C2)c1 (stereo not drawn)
high

Request: O=C(NO)c1ccc2c(c1)CCC(NC(=O)c1ccc3occc3c1)C2 (stereo not drawn)
high

Continue with O=C(NO)c1ccc2c(c1)CCCC2NC(=O)c1cnc2ccccc2n1 (stereo not drawn)
mid

And the next one, O=C(NO)c1ccc2c(c1)CCC(c1ccccc1C(F)(F)F)C2 (stereo not drawn) ?
mid

Lookup `CC(C)(C)C(=O)N[C@H]1CCc2ccc(C(=O)NO)cc2C1`
high

Now the same for COc1ccc2c(CC(=O)NC3CCCc4cc(C(=O)NO)ccc43)coc2c1 (stereo not drawn)
low

###

This section presents molecules with their documented inhibition at 0.412 µM values.
- tgt: purified human HDAC6 (Homo sapiens)
- Construct: purchased BPS Bioscience 5006
- assayInfo: HDAC6 Enzyme Assay
- Type: biochemical
- protocolConditions: HDAC6 inhibition at a compound concentration of 0.412 μM; read-out: Percent Inhibition at 0.412 μM
The answer is to be given in %; state only the numeric part.

{"molecule": "CN(C)C1CCc2ccc(C(=O)NO)cc2C1 (stereo not drawn)", "experimentalEndpoint": "inhibition at 0.412 µM", "numericReadout": 43}
{"molecule": "Cn1cccc1C(=O)N1C2CCC1c1cc(C(=O)NO)ccc12 (stereo not drawn)", "experimentalEndpoint": "inhibition at 0.412 µM", "numericReadout": 90}
{"molecule": "O=C(NO)c1ccc2c(c1)CC(Oc1ccccc1)CC2 (stereo not drawn)", "experimentalEndpoint": "inhibition at 0.412 µM", "numericReadout": 92}
{"molecule": "CN(C)CCOc1cccc(C2CCc3ccc(C(=O)NO)cc3C2)c1 (stereo not drawn)", "experimentalEndpoint": "inhibition at 0.412 µM", "numericReadout": 86}
{"molecule": "O=C(NO)c1ccc2c(c1)CCCC2", "experimentalEndpoint": "inhibition at 0.412 µM", "numericReadout": 49}

Item CN(C)Cc1cc(C(=O)NC2CCc3ccc(C(=O)NO)cc3C2)cc(C(F)(F)F)c1 (stereo not drawn) has what recorded inhibition at 0.412 µM?
88

Record: O=C(NO)c1ccc2c(c1)CC(c1ccc(N3CCNCC3)nc1)CC2 (stereo not drawn)
90

Cool, now O=C(NO)c1ccc2c(c1)CCCC2NC(=O)c1ccc2ncsc2c1 (stereo not drawn)
-2

How about O=C(NO)c1ccc2c(c1)CC(Nc1cccc(Cl)c1)CC2 (stereo not drawn) ?
85

###

- tgt: purified human HDAC6 (Homo sapiens, UniProt Q9UBN7)
- Construct: purchased BPS Bioscience 5006
- Sequence (Q9UBN7 1-1215): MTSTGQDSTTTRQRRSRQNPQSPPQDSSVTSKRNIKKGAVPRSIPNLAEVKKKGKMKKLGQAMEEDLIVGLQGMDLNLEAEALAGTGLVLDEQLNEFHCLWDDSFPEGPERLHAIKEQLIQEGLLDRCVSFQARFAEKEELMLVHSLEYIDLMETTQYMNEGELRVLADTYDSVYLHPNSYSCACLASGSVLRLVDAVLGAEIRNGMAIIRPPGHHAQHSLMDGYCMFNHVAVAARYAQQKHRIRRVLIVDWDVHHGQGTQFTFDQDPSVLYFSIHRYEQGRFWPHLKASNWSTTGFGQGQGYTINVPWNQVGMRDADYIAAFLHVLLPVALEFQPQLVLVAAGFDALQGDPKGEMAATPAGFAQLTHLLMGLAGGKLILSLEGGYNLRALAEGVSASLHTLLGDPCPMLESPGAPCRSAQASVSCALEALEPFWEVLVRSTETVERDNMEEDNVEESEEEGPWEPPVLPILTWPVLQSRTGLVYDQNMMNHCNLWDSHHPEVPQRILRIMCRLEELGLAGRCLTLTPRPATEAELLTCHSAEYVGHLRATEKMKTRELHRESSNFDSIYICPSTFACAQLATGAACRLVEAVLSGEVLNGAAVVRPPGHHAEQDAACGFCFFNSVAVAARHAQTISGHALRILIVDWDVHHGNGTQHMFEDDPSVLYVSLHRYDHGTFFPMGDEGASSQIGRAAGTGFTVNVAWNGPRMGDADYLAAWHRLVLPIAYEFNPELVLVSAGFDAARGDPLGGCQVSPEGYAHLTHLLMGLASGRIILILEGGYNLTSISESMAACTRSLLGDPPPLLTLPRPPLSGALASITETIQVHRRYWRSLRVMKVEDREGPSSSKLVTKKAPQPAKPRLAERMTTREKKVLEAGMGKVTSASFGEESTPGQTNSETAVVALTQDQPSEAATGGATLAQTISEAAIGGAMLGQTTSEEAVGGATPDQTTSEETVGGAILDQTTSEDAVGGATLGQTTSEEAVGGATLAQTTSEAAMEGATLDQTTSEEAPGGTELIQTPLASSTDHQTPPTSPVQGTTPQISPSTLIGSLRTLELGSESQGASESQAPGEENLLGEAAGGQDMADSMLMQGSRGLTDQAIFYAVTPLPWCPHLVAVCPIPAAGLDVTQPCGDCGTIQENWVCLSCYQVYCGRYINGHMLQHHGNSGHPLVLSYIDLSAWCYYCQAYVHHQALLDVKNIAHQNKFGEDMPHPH
- assayInfo: HDAC6 Enzyme Assay
- Assay type: biochemical
- protocolConditions: HDAC6 inhibition at a compound concentration of 0.412 μM; read-out: Percent Inhibition at 0.412 μM
Where a name gives a salt, the structure may show the parent alone.
The molecules listed here are annotated with their inhibition at 0.412 µM.
The reply should contain only the number, in %.

Past entries and their recorded results:
{"molecule": "CN(C)Cc1cc(C(=O)NC2CCc3cc(C(=O)NO)ccc3C2)cc(C(F)(F)F)c1 (centres unmarked) [Compound I-171]", "scaleUnit": "%", "inhibition at 0.412 µM": 77}
{"molecule": "CC(C)(C)C(=O)NC1CCc2cc(C(=O)NO)ccc2C1 (centres unmarked) [Compound I-111]", "scaleUnit": "%", "inhibition at 0.412 µM": 75}
{"molecule": "Cc1ccc(-c2cc(C(=O)N[C@H]3CCCc4cc(C(=O)NO)ccc43)[nH]n2)cc1 [Compound I-72]", "scaleUnit": "%", "inhibition at 0.412 µM": 54}
{"molecule": "O=C(NO)c1ccc2c(c1)CC(C1CCNCC1)CC2 (centres unmarked) [Compound I-212, HCl]", "scaleUnit": "%", "inhibition at 0.412 µM": 72}
{"molecule": "O=C(NO)c1ccc2c(c1)C1CCC2N1C(=O)c1sc2ccccc2c1Cl (centres unmarked) [Compound I-203]", "scaleUnit": "%", "inhibition at 0.412 µM": 53}

Find the recorded inhibition at 0.412 µM belonging to COc1ccc(C(=O)NC2CCc3cc(C(=O)NO)ccc3C2)cc1 (centres unmarked) [Compound I-61] and report it.
84

What do we get for CC(C)(Oc1ccccc1Cl)C(=O)N[C@H]1CCCc2cc(C(=O)NO)ccc21 [Compound I-69] ?
44

And then CC1(C(=O)Nc2cc(OC3CCc4cc(C(=O)NO)ccc4C3)ccn2)CCNCC1 (centres unmarked) [Compound I-148] , what is it?
93
